- TARGET SYSTEM: T1, somatostatin receptor 5 (UniProt P35346 1-364, limits assumed)
- T1 construct: whole, on cells; Assayed as membrane preparation of CHO-K1 cells stably expressing the cloned receptor; also called SSTR5; somatostatin receptor subtype 5
- T1 sequence (P35346 whole entry): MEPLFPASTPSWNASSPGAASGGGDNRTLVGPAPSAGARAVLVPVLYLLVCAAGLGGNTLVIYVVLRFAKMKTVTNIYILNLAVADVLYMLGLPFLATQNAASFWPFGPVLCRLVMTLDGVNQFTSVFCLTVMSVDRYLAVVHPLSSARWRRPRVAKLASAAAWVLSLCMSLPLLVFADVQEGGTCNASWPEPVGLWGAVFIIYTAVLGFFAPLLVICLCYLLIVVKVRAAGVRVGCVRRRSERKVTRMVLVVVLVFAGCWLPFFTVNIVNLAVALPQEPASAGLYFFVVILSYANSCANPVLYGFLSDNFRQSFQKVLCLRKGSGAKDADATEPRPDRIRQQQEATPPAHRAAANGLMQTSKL
- ASSAY SUMMARY: radioligand competition binding, membranes of CHO-K1 cells expressing SSTR5
[ ]: non-standard residue; d: D form. GlyMeDOTA = DOTA chelator on the lysine side chain; Tpi = O=C(O)[C@@H]1Cc2c([nH]c3ccccc23)CN1; βAla(cyclopropyl) = beta-Ala(cyclopropyl); 1Nal = N[C@@H](Cc1cccc2ccccc12)C(=O)O; NMeF = CN[C@@H](Cc1ccccc1)C(=O)O; Dap = NC[C@H](N)C(=O)O
Exercise: for every item that follows, state its recorded pIC50.
Scale for pIC50: -log10 of concentration given in mol/L; no unit attached.

Q: Hello, please tell me recorded pIC50 for this one: cyclo(Y[dW]K[βAla(cyclopropyl)]M[NMeF]) (Cyclic hexapeptide; also called cyclo[Tyr-DTrp-Lys-BAla(cyclopropyl)-Met-(N-Me)Phe]) [P2300]
A: 7.68

Q: Give me measured pIC50, please, for this binder: cyclo(Y[dW]K[Dap]M[NMeF]) (SMILES CSCC[C@@H]1NC(=O)[C@H](CN)NC(=O)[C@H](CCCCN)NC(=O)[C@@H](Cc2c[nH]c3ccccc23)NC(=O)[C@H](Cc2ccc(O)cc2)NC(=O)[C@H](Cc2ccccc2)N(C)C1=O, Cyclic hexapeptide; also called cyclo[Tyr-DTrp-Lys-Dpr-Met-(NMe)Phe]) [P2267]
A: 7.59

Q: Could you please provide reported pIC50 for cyclo(Y[dW]KTM[Tpi]) (SMILES CSCC[C@@H]1NC(=O)[C@H]([C@@H](C)O)NC(=O)[C@H](CCCCN)NC(=O)[C@@H](Cc2c[nH]c3ccccc23)NC(=O)[C@H](Cc2ccc(O)cc2)NC(=O)[C@@H]2Cc3c([nH]c4ccccc34)CN2C1=O, Cyclic hexapeptide; also called cyclo[Tyr-DTrp-Lys-Thr-Met-Tpi]) [P2274] ? Thanks!
A: 7.70

Q: Input cyclo(W[dW]KTM[NMeF]) (SMILES CSCC[C@@H]1NC(=O)[C@H]([C@@H](C)O)NC(=O)[C@H](CCCCN)NC(=O)[C@@H](Cc2c[nH]c3ccccc23)NC(=O)[C@H](Cc2c[nH]c3ccccc23)NC(=O)[C@H](Cc2ccccc2)N(C)C1=O, also called cyclo[Trp-DTrp-Lys-Thr-Met-(NMe)Phe]) [P2269] , output reported pIC50.
A: 8.49

Q: Specify measured pIC50 for cyclo([1Nal][dW]KTK(GlyMeDOTA)[NMeF]) (Cyclic hexapeptide carrying a DOTA chelator on Lys 5; also called cyclo[1Nal-DTrp-Lys-Thr-Lys(GlyMeDOTA)-(N-Me)Phe]) [P2323] .
A: 8.03
